System: Key Broadleaf Weed and Crop Species
Experiment: Post-emergent Test II herbicidal activity (Table 15)
Type: in vivo
Conditions: Euphorbia heterophylla, post-emergence, 336 h, wild poinsettia (Euphorbia heterophylla), 35 g ai/ha, 14 d, read-out: Visual Growth Reduction (%) 14 Days After Application, EPHHL
Measured Quantity: pest or weed control at 35 g/ha

Some compounds with known pest or weed control at 35 g/ha results, for comparison:
Cc1c(-c2ccc3cc[nH]c3c2)nc(C(=O)O)c(Cl)c1N
0 to 29%
COC(=O)c1nc(-c2ccc3scnc3c2)c(F)c(N)c1Cl
0 to 29%
COC(=O)c1nc(-c2ccc3ccoc3c2F)c(F)c(N)c1Cl
95 to 100%

Summary for this compound, COC(=O)c1nc(-c2ccc3sccc3c2)c(C)c(N)c1Cl : pest or weed control at 35 g/ha is 0 to 29%

Summary for this compound, Nc1cc(-c2ccc3cc[nH]c3c2)nc(C(=O)O)c1Cl : pest or weed control at 35 g/ha is 45 to 59%

Summary for this compound, COc1c(N)nc(-c2ccc3ccsc3c2)nc1C(=O)O : pest or weed control at 35 g/ha is 75 to 84%

Summary for this compound, COC(=O)c1nc(-c2cc3sccc3cc2F)cc(N)c1Cl : pest or weed control at 35 g/ha is 45 to 59%

Summary for this compound, Nc1c(F)c(-c2ccc3[nH]ccc3c2)nc(C(=O)O)c1Cl : pest or weed control at 35 g/ha is 95 to 100%

Summary for this compound, COC(=O)c1nc(-c2cc3ccoc3cc2F)cc(N)c1Cl : pest or weed control at 35 g/ha is 95 to 100%
